Every entry's value here was drawn from ChEMBL document CHEMBL1961873.

- target.desc: Vascular endothelial growth factor receptor 1 (Homo sapiens)
- run.parameters: at 1 µM
- Description: GSK_PKIS: FLT1 mean inhibition at 1 uM [Nanosyn]
readout.name: inhibition (%)
Give just the numeric value; % need not be written.

Worked cases, answers included:
COc1cccc(-n2ncc3c(N/N=C/c4cccc(F)c4)ncnc32)c1	3.31
O=C(Nc1n[nH]c2nc(-c3ccco3)c(Br)cc12)C1CC1	4.22
CCn1c(-c2nonc2N)nc2ccncc21	-0.38
COc1ccccc1Nc1ncc(-c2ccccc2)o1	16.4
O=C1Nc2ccc(C(=O)c3ccco3)cc2C1=Cc1cc(Cl)c(O)c(Cl)c1	4.42

GET /value?item= "CCc1cccc(NC(=O)Nc2ccc(Oc3ccc4nc(NC(=O)OC)[nH]c4c3)cc2)c1" &field=inhibition returns 43.8

GET /value?item= "Cn1cc(C=C2C(=O)Nc3cccnc32)c2ccccc21" &field=inhibition returns 13.1

GET /value?item= "CCn1c(-c2nonc2N)nc2c(N3CCCC3)nccc21" &field=inhibition returns -0.61

GET /value?item= "CN(C)c1cc2c(Nc3ccc4nc(Cc5ccccc5)[nH]c4c3)ncnc2cn1" &field=inhibition returns 11.2

GET /value?item= "COC(=O)Nc1nc2cc(Oc3ccc(NC(=O)Nc4cccc(C(=O)O)c4)cc3)ccc2[nH]1" &field=inhibition returns 8.22

GET /value?item= "CCCN1CCC(Oc2cc(Nc3nc(Nc4cccc(F)c4C(N)=O)c4cc[nH]c4n3)c(OC)cc2Cl)CC1" &field=inhibition returns 2.7

GET /value?item= "COc1ccc(COc2ccc(Cc3cnc(N)nc3N)cc2OC)cc1" &field=inhibition returns 2.11

GET /value?item= "O=C1NC(=O)C(c2ccc(Cl)cc2)=C1Nc1ccc(Cl)c(C(=O)O)c1" &field=inhibition returns 2.99

GET /value?item= "NC(=O)c1cccc(Nc2nccc(Nc3cccc4[nH]ncc34)n2)c1" &field=inhibition returns 29.2

GET /value?item= "CNC(=O)c1cncc(/C=C/c2c(Cl)cccc2Cl)c1" &field=inhibition returns 4.61

GET /value?item= COc1ccc2cc(-c3c(-c4ccncc4)nc(-c4ccc([S+](C)[O-])cc4)n3C)ccc2c1 (configuration not stated) &field=inhibition returns -1.05

GET /value?item= "CS(=O)(=O)CCN(CC#N)Cc1ccc(-c2ccc3ncnc(Nc4ccc(OCc5cccc(F)c5)c(Cl)c4)c3c2)o1" &field=inhibition returns 6.33

GET /value?item= CC1=C(C(=O)Nc2ccc3[nH]ncc3c2)C(c2ccc(Cl)c(Cl)c2)CC(=O)N1 (configuration not stated) &field=inhibition returns 2.26

GET /value?item= "COc1cc2ncn(-c3cc(O[C@@H](C)c4ccccc4Cl)c(C(N)=O)s3)c2cc1OC" &field=inhibition returns 13.3

GET /value?item= "CC(C)=Cc1cccc2c1/C(=N/Nc1ccc(S(N)(=O)=O)cc1)C(=O)N2" &field=inhibition returns 13.9

GET /value?item= "[O-][S+]1CCN(Cc2ccc(-c3ccc4ncnc(Nc5ccc(OCc6ccccc6)c(F)c5)c4c3)o2)CC1" &field=inhibition returns -1.13

GET /value?item= "COc1cc(C=NNc2ncnc3c2cnn3-c2ccccc2)ccc1O" &field=inhibition returns 15.1

GET /value?item= "CCn1c(-c2nonc2N)nc2cncc(C(=O)N3CCNCC3)c21" &field=inhibition returns 2.54

GET /value?item= "CCn1c(-c2nonc2N)nc2c(C#CC(C)(C)O)nc(CN3CCCC3)cc21" &field=inhibition returns 3.78
